These data points were gathered from paper PMC9482650.

- TARGET ENTITY: T1, MPDZ_12, O75970
- T1 sequence (O75970 1857-1958, limits assumed, looked up): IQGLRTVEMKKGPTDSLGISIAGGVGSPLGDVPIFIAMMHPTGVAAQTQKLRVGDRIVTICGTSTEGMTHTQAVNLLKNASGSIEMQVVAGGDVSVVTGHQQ
- ASSAY: holdup assay
- Design: key: below the threshold = too weak to quantify, mostly under pKd 3.1 to 4
- COND: plain residues with an end cap or a label only (N-terminal biotin on a linker: ado-ado)
QUANTITY MEASURED: pKd

Here is how some binders turned out for pKd.
- BINDER: "DDASLPVSDV [PLEKHA1, Q9HB21]"
  DATA VALUE: "below the threshold"
- BINDER: "MQHQRTHTRV [ZSCAN30, Q86W11]"
  DATA VALUE: "below the threshold"
- BINDER: "PSVGSKKTVL [REELD1, A0A1B0GV85]"
  DATA VALUE: "below the threshold"
- BINDER: "DPAESMESLV [PTPRG, P23470]"
  DATA VALUE: "below the threshold"
- BINDER: "ARGPPRESEV [FAM110D, Q8TAY7]"
  DATA VALUE: "below the threshold"

Ask: Please look up its pKd: SPDRDRESIV [SCN5A, Q14524]
Result: below the threshold

Ask: Please look up its pKd: NTLNRKTTPV [CACNG8, Q8WXS5]
Result: below the threshold

Ask: Please look up its pKd: APIAGFSSFV [SDK2, Q58EX2]
Result: 4.37

Ask: Please look up its pKd: NIAESLESLV [PTPRZ1, P23471]
Result: below the threshold

Ask: Please look up its pKd: SRSVVESDEL [MYPN, Q86TC9]
Result: below the threshold

Ask: Please look up its pKd: ARESQKVSHV [FAM110B, Q8TC76]
Result: below the threshold

Ask: Please look up its pKd: EIPAQSPTCV [FZD10, Q9ULW2]
Result: below the threshold

Ask: Please look up its pKd: RQKEVRESKC [SCN8A, Q9UQD0]
Result: below the threshold

Ask: Please look up its pKd: RDPPAEWTRV [PTPN18, Q99952]
Result: 3.66

Ask: Please look up its pKd: SFISKKEWYV [NECTIN1, Q15223]
Result: below the threshold

Ask: Please look up its pKd: EPQYQPGENL [SRC, P12931]
Result: below the threshold
